B1: Gamma-crystallin C, residues 91 to 170; numbered along this chain, P07315 (parent)
chain: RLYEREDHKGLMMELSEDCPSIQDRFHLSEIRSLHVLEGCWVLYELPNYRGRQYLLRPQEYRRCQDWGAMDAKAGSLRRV

Variants of: B1
method: abundance fitness (aPCA) (normalised: wild type 0, dead -1); higher = more abundant; growth selection in yeast, the domain comes from the species named
test-settings: Homo sapiens
observation-type: abundance fitness
Answers are plain numbers.

Reference set, count: 3
variant_notation=C64M measured_value=-0.404
variant_notation=F26G measured_value=-0.406
variant_notation=L15T measured_value=-0.389

According to the records, this variant K9V displays abundance fitness of -0.402
